This collection of values is drawn from patent US20100129369A1.

# tgt: T1, Human c-Met-Flis-Fc ECD (human)
# T1 construct: also called human c-Met extracellular domain (ECD)-Fc-Flis fusion; Human cMet-ECD-Fc-Flis
# assay.explanation: ELISA, coated ECD-Fc, antibody 0.060 ng/mL
measurement.type: Average A450 nm (A450 nm)
Respond with the bare value in A450 nm.

Below are worked cases with known answers.
{"binder": "D11-8B8 (antibody, human IgG2, kappa, V domains shown, Human engineered IgG2, kappa; expressed in HEK293 EBNA cells; also called Mab D11-8B8) VH: QVQLVQSGAEVKKPGSSVKVSCKASGYTFTSRYIHWVRQAPGQGLEWMGWIYPVTGDTYYIEKFKGRVTITADKSTSTAYMELSSLRSEDTAVYYCARGYGAFFYWGQGTLVTVSS VL: EIVLTQSPGTLSLSPGERATLSCSVSSSISSTNLHWYQQKPGQAPRLLIYGTSYLASGIPDRFSGSGSGTDFTLTISRLEPEDFAVYYCQQWSSYPYSFGQGTKLEIKR", "Average A450 nm (A450 nm)": 0.445}
{"binder": "D11-S17Y (antibody, human IgG2, kappa, V domains shown, Human engineered IgG2, kappa) VH: QVQLVQSGAEVKKPGSSVKVSCKASGYTFTSRYIHWVRQAPGQGLEWMGWIYPVTGDTYYNEKFKGRVTITADKSTSTAYMELSSLRSEDTAVYYCARGYGAFYYWGQGTLVTVSS VL: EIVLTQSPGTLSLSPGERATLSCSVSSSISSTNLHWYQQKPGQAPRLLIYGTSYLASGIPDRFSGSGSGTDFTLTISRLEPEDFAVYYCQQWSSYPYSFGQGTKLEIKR", "Average A450 nm (A450 nm)": 0.374}

Using the record for C8-co-16 (antibody, human IgG2, kappa, V domains shown, Called IgG4, kappa) VH: QVQLVQSGAEVKKPGASVKVSCKASGYTFTDYYMHWVRQAPGQGLEWMGRVNPYRGSTTYNQKFEGRVTMTTDTSTSTAYMELRSLRSDDTAVYYCARANILDYWGQGTTVTVSS VL: DIQMTQSPSSLSASVGDRVTITCSVSSSVRSIYLHWYQQKPGKAPKLLIYSTSNLASGVPSRFSGSGSGTDFTLTISSLQPEDFATYYCQVYRGYPLTFGGGTKVEIKR , report its Average A450 nm.
0.446
